Target: T1, recombinant human TIGIT (human, UniProt Q495A1 22-141, limits assumed)
T1 construct: recombinant human TIGIT used in Carterra SPR; also called hTIGIT
T1 sequence (looked up): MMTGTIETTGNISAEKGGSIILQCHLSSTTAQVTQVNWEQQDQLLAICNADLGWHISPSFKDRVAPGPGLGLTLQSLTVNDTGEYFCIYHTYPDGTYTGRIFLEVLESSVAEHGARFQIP
Assay: SPR Carterra, average
endpoint name: Kd (nM)
Quick note: give the figure in nM, leave out the unit.

Exercise: # Kd lookup, item TIGIT-SC195 (Fc fusion) VHH: EVQLVESGGGLVQPGGSLRLSCAASGFAFSSDWMGWFRQAPGKEREWVASVLRGGYTWYADSVKGRFTISADNSKNTAYLQMNSLKPEDTAVYYCARGEGFDYWGQGTLVTVSS
Key: 478

Exercise: # Kd lookup, item TIGIT-SC21 (Fc fusion, VHH-Fc fusion in assay) VHH: EVQLVESGGGLVQPGGSLRLSCAASGNTFSGGFMGWFRQAPGKEREWVASVLRGGYTWYADSVKGRFTISADNSKNTAYLQMNSLKPEDTAVYYCARGGAGSDWFGPWGQGTLVTVSS
Key: 7.57

Exercise: # Kd lookup, item TIGIT-SC48 (Fc fusion, VHH-Fc fusion in assay) VHH: EVQLVESGGGLVQPGGSLRLSCAASGRTSDIYGMGWFRQAPGKEREAVASIWRSGGNTYYADSVKGRFTISADNSKNTAYLQMNSLKPEDTAVYYCASSTLDVWGQGTLVTVSS
Key: 0.713

Exercise: # Kd lookup, item TIGIT-SC162 (Fc fusion, VHH-Fc fusion in assay) VHH: EVQLVESGGGLVQPGGSLRLSCAASGNTFSGGFMGWFRQAPGKEREWVASVLRGGYTWYADSVKGRFTISADNSKNTAYLQMNSLKPEDTAVYYCTTDRAIGVRPLFDHWGQGTLVTVSS
Key: 126

Exercise: # Kd lookup, item TIGIT-SC114 (Fc fusion, VHH-Fc fusion in assay) VHH: EVQLVESGGGLVQPGGSLRLSCAASGNTFSGGFMGWFRQAPGKEREWVASVLRGGYTWYADSVKGRFTISADNSKNTAYLQMNSLKPEDTAVYYCATVGGRQRTLFDDWGQGTLVTVSS
Key: 45.2

Exercise: # Kd lookup, item TIGIT-SC51 (Fc fusion, VHH-Fc fusion in assay) VHH: EVQLVESGGGLVQPGGSLRLSCAASGRTEANYAMGWFRQAPGKEREFVAAISWDGGATAYADSVKGRFTISADNSKNTAYLQMNSLKPEDTAVYYCGDYEGHWGQGTLVTVSS
Key: 5.15

Exercise: # Kd lookup, item TIGIT-SC6 (Fc fusion, VHH-Fc fusion in assay) VHH: EVQLVESGGGLVQPGGSLRLSCAASGNTFSGGFMGWFRQAPGKEREWVASVLRGGYTWYADSVKGRFTISADNSKNTAYLQMNSLKPEDTAVYYCAISPVAWHAKFDSWGQGTLVTVSS
Key: 19.4

Exercise: # Kd lookup, item TIGIT-SC97 (Fc fusion, VHH-Fc fusion in assay) VHH: EVQLVESGGGLVQPGGSLRLSCAASGTAASFNPMGWFRQAPGKEREFVAAISWSGGSTNYADSVKGRFTISADNSKNTAYLQMNSLKPEDTAVYYCVTYSAYDFRNAWGQGTLVTVSS
Key: 0.447

Exercise: # Kd lookup, item TIGIT-SC89 (Fc fusion, VHH-Fc fusion in assay) VHH: EVQLVESGGGLVQPGGSLRLSCAASGSMSSINAMGWFRQAPGKEREFVAAINYEGDRTYYADSVKGRFTISADNSKNTAYLQMNSLKPEDTAVYYCARWTRGLVSGTYYYYMDVWGQGTLVTVSS
Key: 30.8

Exercise: # Kd lookup, item TIGIT-SC68 (Fc fusion, VHH-Fc fusion in assay) VHH: EVQLVESGGGLVQPGGSLRLSCAASGHTFRGYAMGWFRQAPGKEREAVAAISWSGDNTYYADSVKGRFTISADNSKNTAYLQMNSLKPEDTAVYYCGDYEGHWGQGTLVTVSS
Key: 5.49

Exercise: # Kd lookup, item TIGIT-SC155 (Fc fusion, VHH-Fc fusion in assay) VHH: EVQLVESGGGLVQPGGSLRLSCAASGNTFSGGFMGWFRQAPGKEREWVASVLRGGYTWYADSVKGRFTISADNSKNTAYLQMNSLKPEDTAVYYCAGDYRGFEMAFDPWGQGTLVTVSS
Key: 126

Exercise: # Kd lookup, item TIGIT-SC211 (Fc fusion, VHH-Fc fusion in assay) VHH: EVQLVESGGGLVQPGGSLRLSCAASGFSFSMYVMGWFRQAPGKEREFVAAIWRSGTLKAYADSVKGRFTISADNSKNTAYLQMNSLKPGDTAVYYCARDHRAMVAPFDYWGQGTLVTVSS
Key: 13

Exercise: # Kd lookup, item TIGIT-SC66 (Fc fusion, VHH-Fc fusion in assay) VHH: EVQLVESGGGLVQPGGSLRLSCAASGTTFSSAAMGWFRQAPGKEREWVASVLRGGYTWYADSVKGRFTISADNSKNTAYLQMNSLKPEDTAVYYCVTDPRQWLGHDYWGQGTLVTVSS
Key: 39.1

Exercise: # Kd lookup, item TIGIT-SC28 (Fc fusion, VHH-Fc fusion in assay) VHH: EVQLVESGGGLVQPGGSLRLSCAASGRTFSTDAMGWFRQAPGKEREFVATINWKDGFTYYADSVKGRFTISADNSKNTAYLQMNSLKPEDTAVYYCAGVGHDYGDYLFDYWGQGTLVTVSS
Key: 23.9

Exercise: # Kd lookup, item TIGIT-SC85 (Fc fusion, VHH-Fc fusion in assay) VHH: EVQLVESGGGLVQPGGSLRLSCAASGRTFSPYTMGWFRQAPGKEREWVAGISQSGGSTAYADSVKGRFTISADNSKNTAYLQMNSLKPEDTAVYYCARDLNAMGDAYDIWGQGTLVTVSS
Key: 44.6

Just for reference, patent US20260184782A1 is where these values come from.
